The reported numbers originate from paper PMC10301432.

# Test system: Salmonella enterica serovar Typhimurium TA104
# Measurement description: Salmonella/microsome assay, TA104
# Test parameters: −S9, 300 µM
Parameter revertant His+ colonies TA104: see the listing below.
Would you mind answering with just the numeric figure?

Examples from the recorded data:
- Compound: "CC(=O)Nc1ccccc1C(F)(F)C(=O)NCC[C@@H]1C[C@H](CC(=O)OC(C)(C)C)OC(C)(C)O1 [Compound 13a]"
  revertant His+ colonies TA104: 316
- Compound: "CC(=O)Nc1ccc(C)cc1C(F)(F)C(=O)NCC[C@@H]1C[C@H](CC(=O)OC(C)(C)C)OC(C)(C)O1 [Compound 13b]"
  revertant His+ colonies TA104: 350
- Compound: "CC(=O)Nc1ccc(Cl)cc1C(F)(F)C(=O)NCC[C@@H]1C[C@H](CC(=O)OC(C)(C)C)OC(C)(C)O1 [Compound 13c]"
  revertant His+ colonies TA104: 206

Summary for this compound, CC(=O)Nc1ccc(Br)cc1C(F)(F)C(=O)NCC[C@@H]1C[C@H](CC(=O)OC(C)(C)C)OC(C)(C)O1 [Compound 13d] : revertant His+ colonies TA104 is 615

====

# Tested on: Salmonella enterica serovar Typhimurium TA102
# Test parameters: +S9, 1500 µM
Parameter revertant His+ colonies TA102: see the listing below.
Would you mind answering with just the numeric figure?

Examples from the recorded data:
- Molecule: "CC(=O)Nc1ccccc1C(F)(F)C(=O)NCC[C@@H]1C[C@H](CC(=O)OC(C)(C)C)OC(C)(C)O1 [Compound 13a]"
  Experimental result: 501
- Molecule: "CC(=O)Nc1ccc(Cl)cc1C(F)(F)C(=O)NCC[C@@H]1C[C@H](CC(=O)OC(C)(C)C)OC(C)(C)O1 [Compound 13c]"
  Experimental result: 430

Summary for this molecule, CC(=O)Nc1ccc(C)cc1C(F)(F)C(=O)NCC[C@@H]1C[C@H](CC(=O)OC(C)(C)C)OC(C)(C)O1 [Compound 13b] : revertant His+ colonies TA102 is 399

====

# System: Salmonella enterica serovar Typhimurium TA100
# Measurement description: Salmonella/microsome assay, TA100
# Test parameters: +S9, 15 µM
Parameter revertant His+ colonies TA100: see the listing below.
Would you mind answering with just the numeric figure?

Examples from the recorded data:
- Molecule: "CC(=O)Nc1ccc(Cl)cc1C(F)(F)C(=O)NCC[C@@H]1C[C@H](CC(=O)OC(C)(C)C)OC(C)(C)O1 [Compound 13c]"
  Test target: "Salmonella enterica serovar Typhimurium TA100"
  Metric name: "revertant His+ colonies TA100"
  Experimental result: 223
- Molecule: "CC(=O)Nc1ccc(C)cc1C(F)(F)C(=O)NCC[C@@H]1C[C@H](CC(=O)OC(C)(C)C)OC(C)(C)O1 [Compound 13b]"
  Test target: "Salmonella enterica serovar Typhimurium TA100"
  Metric name: "revertant His+ colonies TA100"
  Experimental result: 188
- Molecule: "CC(=O)Nc1ccccc1C(F)(F)C(=O)NCC[C@@H]1C[C@H](CC(=O)OC(C)(C)C)OC(C)(C)O1 [Compound 13a]"
  Test target: "Salmonella enterica serovar Typhimurium TA100"
  Metric name: "revertant His+ colonies TA100"
  Experimental result: 223

Kindly review the next molecule as well.
Summary for this molecule, CC(=O)Nc1ccc(Br)cc1C(F)(F)C(=O)NCC[C@@H]1C[C@H](CC(=O)OC(C)(C)C)OC(C)(C)O1 [Compound 13d] : revertant His+ colonies TA100 is 166

====

Parameter revertant His+ colonies TA104: see the listing below.
# System: Salmonella enterica serovar Typhimurium TA104
# Measurement description: Salmonella/microsome assay, TA104
# Test parameters: −S9, 1500 µM
# Experimental: Salmonella enterica serovar Typhimurium (S. typhimurium) strains TA97, TA98, TA100, TA104 and TA102 from the authors’ stock were used as described in the mutagenicity assay. To determine the cytotoxic effects, after 30 min pre-incubation, the assay mixtures were diluted in 0.9% NaCl (w/v) to obtain a suspension containing 2 × 10^2 cells/mL. […] The plates were then incubated at 37 °C for 24 h and the colonies counted. All the experiments were conducted in triplicate and were repeated at least twice. […]
Would you mind answering with just the numeric figure?

Examples from the recorded data:
- Compound: "CC(=O)Nc1ccc(Cl)cc1C(F)(F)C(=O)NCC[C@@H]1C[C@H](CC(=O)OC(C)(C)C)OC(C)(C)O1 [Compound 13c]"
  revertant His+ colonies TA104: 241
- Compound: "CC(=O)Nc1ccc(C)cc1C(F)(F)C(=O)NCC[C@@H]1C[C@H](CC(=O)OC(C)(C)C)OC(C)(C)O1 [Compound 13b]"
  revertant His+ colonies TA104: 400

Summary for this compound, CC(=O)Nc1ccccc1C(F)(F)C(=O)NCC[C@@H]1C[C@H](CC(=O)OC(C)(C)C)OC(C)(C)O1 [Compound 13a] : revertant His+ colonies TA104 is 350

Summary for this compound, CC(=O)Nc1ccc(Br)cc1C(F)(F)C(=O)NCC[C@@H]1C[C@H](CC(=O)OC(C)(C)C)OC(C)(C)O1 [Compound 13d] : revertant His+ colonies TA104 is 620

====

# System: Salmonella enterica serovar Typhimurium TA98
# Measurement description: Salmonella/microsome assay, TA98
# Test parameters: +S9, 30 µM
Metric name: revertant His+ colonies TA98
Would you mind answering with just the numeric figure?

Examples from the recorded data:
- Molecule: "CC(=O)Nc1ccccc1C(F)(F)C(=O)NCC[C@@H]1C[C@H](CC(=O)OC(C)(C)C)OC(C)(C)O1 [Compound 13a]"
  Test target: "Salmonella enterica serovar Typhimurium TA98"
  Metric name: "revertant His+ colonies TA98"
  Experimental result: 26
- Molecule: "CC(=O)Nc1ccc(Br)cc1C(F)(F)C(=O)NCC[C@@H]1C[C@H](CC(=O)OC(C)(C)C)OC(C)(C)O1 [Compound 13d]"
  Test target: "Salmonella enterica serovar Typhimurium TA98"
  Metric name: "revertant His+ colonies TA98"
  Experimental result: 31
- Molecule: "CC(=O)Nc1ccc(C)cc1C(F)(F)C(=O)NCC[C@@H]1C[C@H](CC(=O)OC(C)(C)C)OC(C)(C)O1 [Compound 13b]"
  Test target: "Salmonella enterica serovar Typhimurium TA98"
  Metric name: "revertant His+ colonies TA98"
  Experimental result: 27

Tested on Salmonella enterica serovar Typhimurium TA98: CC(=O)Nc1ccc(Cl)cc1C(F)(F)C(=O)NCC[C@@H]1C[C@H](CC(=O)OC(C)(C)C)OC(C)(C)O1 [Compound 13c] . Observed revertant His+ colonies TA98: 39

====

Parameter revertant His+ colonies TA102: see the listing below.
# System: Salmonella enterica serovar Typhimurium TA102
# Test parameters: −S9, 3 µM
Would you mind answering with just the numeric figure?

Examples from the recorded data:
- Compound: "CC(=O)Nc1ccc(Br)cc1C(F)(F)C(=O)NCC[C@@H]1C[C@H](CC(=O)OC(C)(C)C)OC(C)(C)O1 [Compound 13d]"
  Experimental result: 356
- Compound: "CC(=O)Nc1ccccc1C(F)(F)C(=O)NCC[C@@H]1C[C@H](CC(=O)OC(C)(C)C)OC(C)(C)O1 [Compound 13a]"
  Experimental result: 458
- Compound: "CC(=O)Nc1ccc(C)cc1C(F)(F)C(=O)NCC[C@@H]1C[C@H](CC(=O)OC(C)(C)C)OC(C)(C)O1 [Compound 13b]"
  Experimental result: 388

Kindly review the next compound as well.
Tested on Salmonella enterica serovar Typhimurium TA102: CC(=O)Nc1ccc(Cl)cc1C(F)(F)C(=O)NCC[C@@H]1C[C@H](CC(=O)OC(C)(C)C)OC(C)(C)O1 [Compound 13c] . Observed revertant His+ colonies TA102: 373

====

# System: Salmonella enterica serovar Typhimurium TA100
# Measurement description: Salmonella/microsome assay, TA100
# Test parameters: +S9, 3 µM
Metric name: revertant His+ colonies TA100
Would you mind answering with just the numeric figure?

Examples from the recorded data:
- Compound: "CC(=O)Nc1ccc(C)cc1C(F)(F)C(=O)NCC[C@@H]1C[C@H](CC(=O)OC(C)(C)C)OC(C)(C)O1 [Compound 13b]"
  Test target: "Salmonella enterica serovar Typhimurium TA100"
  revertant His+ colonies TA100: 179
- Compound: "CC(=O)Nc1ccc(Cl)cc1C(F)(F)C(=O)NCC[C@@H]1C[C@H](CC(=O)OC(C)(C)C)OC(C)(C)O1 [Compound 13c]"
  Test target: "Salmonella enterica serovar Typhimurium TA100"
  revertant His+ colonies TA100: 223
- Compound: "CC(=O)Nc1ccccc1C(F)(F)C(=O)NCC[C@@H]1C[C@H](CC(=O)OC(C)(C)C)OC(C)(C)O1 [Compound 13a]"
  Test target: "Salmonella enterica serovar Typhimurium TA100"
  revertant His+ colonies TA100: 211

Summary for this compound, CC(=O)Nc1ccc(Br)cc1C(F)(F)C(=O)NCC[C@@H]1C[C@H](CC(=O)OC(C)(C)C)OC(C)(C)O1 [Compound 13d] : revertant His+ colonies TA100 is 156
